# Tested on: cool season plant species
# experimental.details: B2 Post-emergence efficacy Test 2, cool season plant species
# Format: in vivo
# condition.summary: STEME, 250 g/Ha, 15 days after application, 0=no damage, 100=total kill
Would you kindly list Herbicidal activity (0-100 scale) STEME for each of these molecules?
API note: the answer field is a bare number with no unit suffix.

Challenge: Fill in reported Herbicidal activity (0-100 scale) STEME for this entry: Cc1nn(C)c(=O)c(-c2c(F)ccc(Cl)c2CCc2ccc(F)cc2)c1O [Compound 1.048]
Response given: 100

Challenge: Fill in reported Herbicidal activity (0-100 scale) STEME for this entry: Cc1nn(C)c(=O)c(-c2c(F)ccc(Cl)c2CCc2ccc(F)cc2)c1OC(=O)C(C)C [Compound 1.125]
Response given: 90

Challenge: Fill in reported Herbicidal activity (0-100 scale) STEME for this entry: Cc1nn(C)c(=O)c(-c2c(F)ccc(Cl)c2CCc2ccccc2C(F)(F)F)c1O [Compound 1.066]
Response given: 90

Challenge: Fill in reported Herbicidal activity (0-100 scale) STEME for this entry: Cc1nn(C)c(=O)c(-c2c(F)ccc(Cl)c2CCc2ccc(Cl)cc2)c1OC(=O)C(C)C [Compound 1.089]
Response given: 90

Challenge: Fill in reported Herbicidal activity (0-100 scale) STEME for this entry: Cc1nn(C)c(=O)c(-c2c(F)ccc(Cl)c2CCc2ccc(C#N)cc2)c1O [Compound 1.024]
Response given: 90

These data points were gathered from patent US12162840B2.
